EXPERIMENTAL_TARGET: T1, human IL-6 (human, UniProt P05231 30-212)
T1 construct: also called interleukin-6
T1 sequence (P05231 30-212 limits assumed): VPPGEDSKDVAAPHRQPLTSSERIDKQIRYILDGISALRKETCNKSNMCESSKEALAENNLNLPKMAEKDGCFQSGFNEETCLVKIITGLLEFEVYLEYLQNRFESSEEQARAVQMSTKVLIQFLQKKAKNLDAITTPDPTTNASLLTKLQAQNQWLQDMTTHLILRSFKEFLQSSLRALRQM
PROTOCOL_NOTES: SPR (Biacore T200), antibody from cell supernatant captured on Protein A, IL-6 flowed over, 37 C
Would you mind telling me the reported kon of each entry?
// note: answer is a bare numeric in M⁻¹ s⁻¹

Form field: reported kon of anti-IL-6 antibody, heavy chain T65Y, G66D / light chain WT (antibody, human IgG1, V domains shown, Derived as m2; Engineered human IgG1) VH: EVQLVESGGGLVQPGGSLRLSCAASGFTFSPFAMSWVRQAPGKGLEWVAKISPGGSWTYYSDTVYDRFTFSLDTSKSTAYLQMNSLRAEDTAVYYCARQLWGYYALDIWGQGTLVTVSS VL: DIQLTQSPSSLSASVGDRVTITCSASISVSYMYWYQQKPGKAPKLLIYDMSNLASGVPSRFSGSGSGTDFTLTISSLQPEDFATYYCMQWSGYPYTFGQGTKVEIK 1.61e+06

Form field: reported kon of anti-IL-6 antibody, heavy chain I51L, G66D / light chain WT (antibody, human IgG1, V domains shown, Derived as m2; Engineered human IgG1) VH: EVQLVESGGGLVQPGGSLRLSCAASGFTFSPFAMSWVRQAPGKGLEWVAKLSPGGSWTYYSDTVTDRFTFSLDTSKSTAYLQMNSLRAEDTAVYYCARQLWGYYALDIWGQGTLVTVSS VL: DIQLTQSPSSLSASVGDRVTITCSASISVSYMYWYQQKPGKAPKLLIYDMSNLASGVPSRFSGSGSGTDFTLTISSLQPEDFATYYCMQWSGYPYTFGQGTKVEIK 1.9e+06

Form field: reported kon of anti-IL-6 antibody, heavy chain S35L, G66D / light chain WT (antibody, human IgG1, V domains shown, Derived as m2; Engineered human IgG1) VH: EVQLVESGGGLVQPGGSLRLSCAASGFTFSPFAMLWVRQAPGKGLEWVAKISPGGSWTYYSDTVTDRFTFSLDTSKSTAYLQMNSLRAEDTAVYYCARQLWGYYALDIWGQGTLVTVSS VL: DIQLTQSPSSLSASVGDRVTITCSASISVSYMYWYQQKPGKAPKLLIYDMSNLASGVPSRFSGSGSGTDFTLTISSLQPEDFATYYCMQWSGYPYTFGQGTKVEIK 1.11e+06

Form field: reported kon of anti-IL-6 antibody, heavy chain T65Q, G66D / light chain WT (antibody, human IgG1, V domains shown, Derived as m2; Engineered human IgG1) VH: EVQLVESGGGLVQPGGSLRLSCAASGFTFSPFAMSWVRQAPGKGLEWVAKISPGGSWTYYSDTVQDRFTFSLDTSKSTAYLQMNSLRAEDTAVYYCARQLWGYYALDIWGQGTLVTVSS VL: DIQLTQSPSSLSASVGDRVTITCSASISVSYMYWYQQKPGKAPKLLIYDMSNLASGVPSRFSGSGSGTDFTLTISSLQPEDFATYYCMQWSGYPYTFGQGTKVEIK 3.28e+06

Form field: reported kon of anti-IL-6 antibody, heavy chain T65S, G66D / light chain WT (antibody, human IgG1, V domains shown, Derived as m2; Engineered human IgG1) VH: EVQLVESGGGLVQPGGSLRLSCAASGFTFSPFAMSWVRQAPGKGLEWVAKISPGGSWTYYSDTVSDRFTFSLDTSKSTAYLQMNSLRAEDTAVYYCARQLWGYYALDIWGQGTLVTVSS VL: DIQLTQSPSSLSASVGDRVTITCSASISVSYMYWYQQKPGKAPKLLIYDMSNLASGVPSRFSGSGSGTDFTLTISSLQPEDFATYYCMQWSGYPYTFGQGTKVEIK 1.82e+06

Form field: reported kon of anti-IL-6 antibody, heavy chain S35D, G66D / light chain WT (antibody, human IgG1, V domains shown, Derived as m2; Engineered human IgG1) VH: EVQLVESGGGLVQPGGSLRLSCAASGFTFSPFAMDWVRQAPGKGLEWVAKISPGGSWTYYSDTVTDRFTFSLDTSKSTAYLQMNSLRAEDTAVYYCARQLWGYYALDIWGQGTLVTVSS VL: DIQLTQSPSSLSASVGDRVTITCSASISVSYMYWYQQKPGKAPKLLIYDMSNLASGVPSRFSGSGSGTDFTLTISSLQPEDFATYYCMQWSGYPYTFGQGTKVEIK 2e+06

Form field: reported kon of anti-IL-6 antibody, heavy chain T63P, G66D / light chain WT (antibody, human IgG1, V domains shown, Derived as m2; Engineered human IgG1) VH: EVQLVESGGGLVQPGGSLRLSCAASGFTFSPFAMSWVRQAPGKGLEWVAKISPGGSWTYYSDPVTDRFTFSLDTSKSTAYLQMNSLRAEDTAVYYCARQLWGYYALDIWGQGTLVTVSS VL: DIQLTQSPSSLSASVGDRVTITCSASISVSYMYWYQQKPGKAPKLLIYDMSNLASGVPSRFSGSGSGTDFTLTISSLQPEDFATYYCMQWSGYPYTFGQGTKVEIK 2.08e+06

Form field: reported kon of anti-IL-6 antibody, heavy chain T65R, G66D / light chain WT (antibody, human IgG1, V domains shown, Derived as m2; Engineered human IgG1) VH: EVQLVESGGGLVQPGGSLRLSCAASGFTFSPFAMSWVRQAPGKGLEWVAKISPGGSWTYYSDTVRDRFTFSLDTSKSTAYLQMNSLRAEDTAVYYCARQLWGYYALDIWGQGTLVTVSS VL: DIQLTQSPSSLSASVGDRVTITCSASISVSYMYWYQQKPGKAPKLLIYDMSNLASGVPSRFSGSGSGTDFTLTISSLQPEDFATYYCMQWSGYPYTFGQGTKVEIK 2e+06

Form field: reported kon of anti-IL-6 antibody, heavy chain S35F, G66D / light chain WT (antibody, human IgG1, V domains shown, Derived as m2; Engineered human IgG1) VH: EVQLVESGGGLVQPGGSLRLSCAASGFTFSPFAMFWVRQAPGKGLEWVAKISPGGSWTYYSDTVTDRFTFSLDTSKSTAYLQMNSLRAEDTAVYYCARQLWGYYALDIWGQGTLVTVSS VL: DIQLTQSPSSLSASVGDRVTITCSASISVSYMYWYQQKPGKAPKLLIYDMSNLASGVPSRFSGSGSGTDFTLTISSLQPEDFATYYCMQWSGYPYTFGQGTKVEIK 1.59e+06

Form field: reported kon of anti-IL-6 antibody, heavy chain T63I, G66D / light chain WT (antibody, human IgG1, V domains shown, Derived as m2; Engineered human IgG1) VH: EVQLVESGGGLVQPGGSLRLSCAASGFTFSPFAMSWVRQAPGKGLEWVAKISPGGSWTYYSDIVTDRFTFSLDTSKSTAYLQMNSLRAEDTAVYYCARQLWGYYALDIWGQGTLVTVSS VL: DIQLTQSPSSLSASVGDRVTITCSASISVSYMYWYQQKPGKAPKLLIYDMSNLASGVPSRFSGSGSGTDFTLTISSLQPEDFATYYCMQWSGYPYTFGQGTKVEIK 1.77e+06
